- Test system: MS2 coat protein
- assay_procedure: apparent KD of MS2 coat protein; designed switch direction (-1 OFF switch, 1 ON switch): -1; higher = weaker reporter binding
- test_context: input ligand: microRNA oligo, concentration not stated
Each entry belongs to exactly one class, chosen by where its apparent KD of MS2 coat protein falls: low = under 30 nM, medium = from 30 nM up to 70 nM, high = 70 nM and over

| sequence_record | qualitative_label |
| --- | --- |
| CUAAAUCAUGUAGGAUAUGCGUGGCGAAGCUAUGCAGAAGGACAUGAGGAUCACCCAUGUGCUUCCGUCUGAGUACAGACGGAA [Mat - Exclusion NG 1 - Mod of JL - D25] (Eterna round: R96, puzzle: Exclusion NG 1) | high |
| AUGUACCGGUGAGGAUAUUUAUAAUAGAGCUUUAUGAUAUACAUGAGGAUCACCCAUGUUACUUUAAAGAAGGCAUCGGAUUAA [Mat - Exclusion NG 2 - Mod of JL - D91] (Eterna round: R96, puzzle: Exclusion NG 2) | low |
| GACCUAUAGGUAGGAUAUCAUUGCGAUUAGCUAUGAGAAGGACCACAUGAGGAUCACCCAUGUCCUCCAAUUAGCCAUUUGGUC [Fiskers ExNg1 - 7] (Eterna round: R96, puzzle: Exclusion NG 1) | medium |
| CUCUUGGCAGGAUAUGCUCUCUUAGACAUGAGGAUCACCCAUGUGUUCAUUCUUUCUUUUGCAGAAGGGCCUUAAC [JR_E5_Sub046] (Eterna round: R96, puzzle: Exclusion 5) | medium |
| ACUUAUAGAGGAUAUACAGUUUAUUACAUGAGGAUCACCCAUGUUCUUCAAUGUAUAUAAGUAGAAGGCUAAGGAA [EX-5 Malc#5] (Eterna round: R96, puzzle: Exclusion 5) | medium |
| GGUGCGUAUGUGAGGAUAUGCUGGUCCUUGGAUCAGCAGAAGGCACAUGAGGAUCACCCAUGUGGUGUCGUGCC [salish99_Bmod_Ex4_019] (Eterna round: R96, puzzle: Brourd's mod of Exclusion 4) | high |
| UGAGUGCUGCGAGGAUAUACAUGAGGAUCACCCAUGUUUUCGUGUGAGGCUUUGCCUCACACGAUGUAGAAGGCGCAGUACUCU [JL ENG2 1.13] (Eterna round: R96, puzzle: Exclusion NG 2) | low |

Where these numbers come from: the supplement of paper PMC9170038
